test system: NCI-H522 lung; test: NCI tumour cell line growth inhibition, 48 h
Reported metric: TGI (µM)
Kindly answer with a numeric value in µM, unit omitted.

Solved entries (count: 8):
molecule="CC(C)(C)C(=O)OCOP(=O)(OCOC(=O)C(C)(C)C)C1CC(O)N(O)C1=O (stereo not given)" quantitative_result=14.4
molecule=COC(=O)c1c(O)ccc2c1c1c(n2Cc2ccc(Cl)cc2Cl)C(=O)c2ccccc2C1=O quantitative_result=22
molecule=O=C(N=Nc1cccc(Cl)c1)NNc1cccc(Cl)c1 quantitative_result=42.6
molecule=CC(=O)Oc1ccccc1/C=C/C(=O)/C=C/c1ccccc1OC(C)=O quantitative_result=4.69
molecule=O=c1oc2ccccc2c(O)c1/C=N/C(=S)NCCc1ccccc1 quantitative_result=87.4
molecule=O=[N+]([O-])c1ccc(Sc2ncnc3nc[nH]c23)c2nonc12 quantitative_result=2.71
molecule="CN(C)P(=O)(Oc1ccc(CC(NC(=O)OCc2ccccc2)C(=O)OCc2ccccc2)cc1)N(C)C (stereo not given)" quantitative_result=30.9
molecule="Cc1cccc2c1N(C(=O)/C=C\\C(=O)O)C(c1c(C)[nH]c3ccccc13)C2 (stereo not given)" quantitative_result=46.3

// `Clc1ccc2c(c1)N(c1ncnc3ccc(-c4cnc5[nH]ccc5c4)cc13)CC2` : TGI value = 12.5

// `Cl.Fc1c[c-]c(-c2ccccn2)c(F)c1.[Pt].c1ccc(P(c2ccccc2)C([PH+](c2ccccc2)c2ccccc2)[PH+](c2ccccc2)c2ccccc2)cc1` : TGI value = 9.86

###

system: NCI/ADR-RES ovarian; assay: NCI tumour cell line growth inhibition, 48 h
The entries below come with measured TGI values attached.
Kindly answer with a numeric value in µM, unit omitted.

Solved entries (count: 3):
mol=Clc1ccc2c(c1)N(c1ncnc3ccc(-c4cnc5[nH]ccc5c4)cc13)CC2 quantitative_result=69
mol=COc1ccc2c(c1)[nH]c(=O)c1c3cc(OC)ccc3cn21 quantitative_result=0.02
mol=CCCCCCCCN(CCCCCCCC)CCCCCCNc1cc(OC)cc2cccnc12 quantitative_result=23.4

// `Oc1ccc(O)c(-c2cn3ccsc3n2)c1` : TGI value = 25.5

###

tested on: K-562 leukemia; experiment: NCI tumour cell line growth inhibition, 48 h
Reported metric: GI50

compound=CCOC(=O)CSC(=O)NCCCl target_under_test="K-562 leukemia" reported_metric=GI50 result="29 µM"

// `Cl.Fc1c[c-]c(-c2ccccn2)c(F)c1.[Pt].c1ccc(P(c2ccccc2)C([PH+](c2ccccc2)c2ccccc2)[PH+](c2ccccc2)c2ccccc2)cc1` : GI50 value = 2.44 µM

// `O=[N+]([O-])c1ccccc1N/N=C\c1c[nH]c2ccccc12` : GI50 value = 4.53 µM

// COc1ccc2cc(-c3cc4c(oc3=O)-c3ccccc3OC4O)c(=O)oc2c1 (stereo not drawn) : GI50 value = 92.9 µM

// `C=C(C)[C@@H]1CC[C@]2(C(=O)O)CC[C@]3(C)[C@H](CC[C@@H]4[C@@]5(C)C[C@@H](CC#Cc6ccc(C(F)(F)F)cc6)[C@H](O)C(C)(C)[C@@H]5CC[C@]43C)[C@@H]12` : GI50 value = 1.93 µM

// `CCOC(=O)n1cc(C2=C(c3cn(C)c4ccccc34)COC2=O)c2ccccc21` : GI50 value = 0.0365 µM

// `COc1cc2nc(SCC(=O)Nc3cc(OC)c(OC)c(OC)c3)n(Cc3ccccc3)c(=O)c2cc1OC` : GI50 value = > 100 µM

// `C[C@H](Nc1ncnc2nc[nH]c12)c1cc2ccc(F)cc2nc1-c1ccccn1` : GI50 value = > 100 µM
